Test: Binding affinity to Cu2+
Type: physicochemical
Field: Ka. Provide a value for each of the molecules that follow.
Your answer is read as ×10⁴ /M, so omit the unit and give the number.

Quickly give me recorded Ka for CN(C)c1ccc(/C=N/c2ccccc2O)cc1
2.36

Quickly give me recorded Ka for Oc1ccccc1/C=N/c1ccccc1O
1.26

Quickly give me recorded Ka for Oc1ccc(/N=C/C=C/c2ccccc2)cc1
1.45

###

Assay: Antioxidant activity assessed as Fe2+ quenching activity
Assay type: functional
experimental endpoint: KSV (×10⁴ /M)
Your answer is read as ×10⁴ /M, so omit the unit and give the number.

Quickly give me recorded KSV for Oc1ccccc1/C=N/c1ccccc1O
6.7

Quickly give me recorded KSV for Oc1cccc(/N=C/c2ccccc2O)c1
2.61

###

Assay: Binding affinity to Fe2+
experimental endpoint: Ka (×10³ /M)
Your answer is read as ×10³ /M, so omit the unit and give the number.

Quickly give me recorded Ka for Oc1ccc(/N=C/c2ccccc2O)cc1
9.67

Quickly give me recorded Ka for Oc1ccc(/N=C/c2ccco2)cc1
1.81

Quickly give me recorded Ka for Oc1cccc(/N=C/c2ccccc2O)c1
3.21

Quickly give me recorded Ka for Oc1ccccc1/C=N/c1ccccc1O
6.48

###

Test: Binding affinity to Fe2+
experimental endpoint: Ka (×10⁴ /M)
Your answer is read as ×10⁴ /M, so omit the unit and give the number.

Quickly give me recorded Ka for CN(C)c1ccc(/C=N/c2ccccc2O)cc1
7.3

Quickly give me recorded Ka for Oc1cccc(/N=C/c2ccccc2)c1
1.47

Quickly give me recorded Ka for Oc1ccc(/N=C/c2ccccc2)cc1
1.62
